- measured_on: T1, GST-tagged Abl SH3 domain fusion protein (human, UniProt P00519 61-121, limits assumed)
- T1 construct: domain: SH3 domain; also called GST-Abl SH3; Abl1 SH3 domain; not shown: GST tag
- protocol_description: peptide microarray, GST-Abl SH3 5 uM overlaid, peptide printed at 1 mg/ml, Cy3 fluorescence, triplicates
- Method: All peptides were synthesized by Sigma-Aldrich. The peptides were printed onto glass slides in triplicates by ArrayIt Corporation. A buffer blank and a Cy3 marker were also printed in triplicates. […] To analyze the microarray data, the spots that were flagged as noisy were first removed. […] Next, the statistical cut-off was determined for the significant fluorescence signal by modeling the background intensity distribution using a Gamma distribution (FIG. 4). […]
Non-standard residues stand in square brackets, D forms with d. No end group written: not given here. Ahx = NCCCCCC(=O)O
What Average fluorescence intensity (high printing concentration) was measured for each of the following?

Could you tell me which Average fluorescence intensity (high printing concentration) is on file for [Ahx]APSGPPPPPP [WASL_HUMAN 354-363 peptide APSGPPPPPP] ?
52300

Query (binder): [Ahx]GRGGPPPPPP [WASP_HUMAN 363-372 peptide GRGGPPPPPP] ; field requested: Average fluorescence intensity (high printing concentration)
1300

Quick check: Average fluorescence intensity (high printing concentration) of [Ahx]PPPPPMPPPP [YLPM1_HUMAN 102-111 peptide PPPPPMPPPP] ?
22800

If you can, please state the reported Average fluorescence intensity (high printing concentration) value of SPPLPPPPPP (not fully specified (N-terminus)) [RAPH1_HUMAN 677-686 peptide SPPLPPPPPP] .
17500
